system: KM12 colon; assay: NCI-60 one-dose screen, 48 h; details: 10 µM unless noted
The panel holds about 83,000 compounds, 20% with a hit somewhere; the sample as a whole holds those more often. Activity calls are given as the source filed them. Rule for the calls: active = growth percent below 10; inactive = the rest.
Classes to choose from: active, inactive

Before answering, review these 8 worked examples.
[
  {
    "compound": "CN1CCN(c2ccc(Nc3ncc(C(N)=O)c(NCCCNC(=O)C4CCC4)n3)cc2)CC1",
    "label": "inactive"
  },
  {
    "compound": "CON1CCC[C@]2(C)[C@H]3CC[C@@H]4[C@H]5[C@@H](O)C(C)(C)CC[C@]5(CO)CC[C@@]4(C)[C@]3(C)CC[C@H]2C1(C)C",
    "label": "inactive"
  },
  {
    "compound": "C=C(C)[C@@H]1CC[C@]2(C)[C@H](CC(=O)N[C@H]3[C@@H]4C[C@](C)(C(=O)OC)CC[C@]4(C)CC[C@]32C)[C@@]1(C)CCC#N",
    "label": "inactive"
  },
  {
    "compound": "COc1ccc(Oc2nc(Nc3ccc(N4CCOCC4)cc3)ncc2NC(=O)c2cc(OC)cc(OC)c2)cc1",
    "label": "inactive"
  },
  {
    "compound": "COc1ccc(Nc2nn3c(SCC(=O)c4ccc(C)cc4)nnc3s2)cc1",
    "label": "inactive"
  },
  {
    "compound": "BrC1=C(Br)C(Br)(Br)C(Br)=C1Br",
    "label": "inactive"
  },
  {
    "compound": "Cc1n(Cc2ccc3ccccc3c2)c(Cl)c(Cl)[n+]1Cc1ccc2ccccc2c1",
    "label": "active"
  },
  {
    "compound": "O=C1OCC2=C1C(c1cccc([N+](=O)[O-])c1)c1cc3c(cc1N2CCO)CCC3 (centres undefined)",
    "label": "inactive"
  }
]

Here's the next entry for you.
[Q] I would be grateful if you could indicate the recorded call for Nc1n[nH]c2cccc(C#Cc3cccc(C(=O)Nc4ccc(CN5CCOCC5)c(C(F)(F)F)c4)c3)c12 .
[A] inactive

----------
system: EKVX NSCLC; experiment: NCI-60 one-dose screen, 48 h; conditions: 10 µM unless noted
About 83,000 compounds went through this panel and 20% of them were active in at least one assay; those are over-represented in the sample as a whole. Active and inactive are the calls of the source. Rule for the calls: active = growth percent below 10; inactive = the rest.
Classes to choose from: active, inactive

Before answering, review these 5 worked examples.
[
  {
    "compound": "O=C(CCN1CCOCC1)Nc1cccc(-n2cc(-c3ccncc3)c(-c3ccc(Cl)c(O)c3)n2)c1",
    "tested-system": "EKVX NSCLC",
    "label": "inactive"
  },
  {
    "compound": "Cc1nc2sc(C(=O)Nc3cccc(Cl)c3C)c(N)c2cc1C(O)c1ccccc1 (stereo not drawn)",
    "tested-system": "EKVX NSCLC",
    "label": "inactive"
  },
  {
    "compound": "Cc1ccc(NC(=O)N/C(N)=N/c2nc(=O)c3ccccc3s2)cc1",
    "tested-system": "EKVX NSCLC",
    "label": "inactive"
  },
  {
    "compound": "CCN1CCN(CC(=O)Nc2nc3ccc(NCc4ccc(C)cc4)cc3s2)CC1",
    "tested-system": "EKVX NSCLC",
    "label": "inactive"
  },
  {
    "compound": "Cc1cc2nc(C(Cl)Cl)nc(-c3ccc(Cl)cc3)n2n1",
    "tested-system": "EKVX NSCLC",
    "label": "active"
  }
]

[Q] I would be grateful if you could indicate the recorded call for C[C@@H]1O[C@@H](O[C@H]2[C@@H](OC(=O)[C@]34CCC(C)(C)C[C@H]3C3=CC[C@@H]5[C@@]6(C)C[C@H](O)[C@H](O[C@@H]7O[C@H](CO)[C@@H](O)[C@H](O)[C@H]7O)[C@@](C)(CO)[C@@H]6CC[C@@]5(C)[C@]3(C)C[C@H]4O)OC[C@@H](O)[C@@H]2O)[C@H](O)[C@H](O[C@@H]2OC[C@@H](O)[C@H](O[C@@H]3OC[C@](O)(CO)[C@H]3O[C@@H]3OC[C@@H](O)[C@H](O)[C@H]3O)[C@H]2O)[C@H]1O[C@@H]1OC[C@](O)(CO)[C@H]1O .
[A] inactive

[Q] I would be grateful if you could indicate the recorded call for Oc1ccccc1C=Nc1ccc(N2CCN(c3ccccc3)CC2)cc1 .
[A] inactive

[Q] I would be grateful if you could indicate the recorded call for CCCCC#Cc1c(/C=C(\CCCC)SCC)n(C)c(=O)[nH]c1=O .
[A] inactive

----------
Would you kindly list growth for each of these molecules?
system: SK-MEL-2 melanoma; assay: NCI-60 one-dose screen, 48 h (100 = growth as untreated, 0 = no growth, -100 = all killed); details: 100 µM
The panel holds about 83,000 compounds, 20% with a hit somewhere; the sample as a whole holds those more often.
One number for each entry, in %.

Worked examples, 4 molecules total:
[
  {
    "smiles-entry": "CC(=O)/C=C/c1ccc(N(CCO)Cc2ccc(C(C)(C)C)cc2)cc1",
    "tested-system": "SK-MEL-2 melanoma",
    "unit-spec": "%",
    "experimental-result": -75.2
  },
  {
    "smiles-entry": "O=C(/C=C/c1cccc(Oc2ccc(Cl)cc2)c1)c1ccccc1",
    "tested-system": "SK-MEL-2 melanoma",
    "unit-spec": "%",
    "experimental-result": -59.8
  },
  {
    "smiles-entry": "COc1ccc(C(=O)/C=C/c2ccc(OCc3ccc(Cl)cc3)cc2)cc1OC",
    "tested-system": "SK-MEL-2 melanoma",
    "unit-spec": "%",
    "experimental-result": 48.5
  },
  {
    "smiles-entry": "CC(=O)/C=C/c1ccc(N(C)Cc2ccc(C(C)(C)C)cc2)cc1",
    "tested-system": "SK-MEL-2 melanoma",
    "unit-spec": "%",
    "experimental-result": -69.2
  }
]

[Q] Recorded growth of CC(=O)/C=C/c1ccc(OCc2ccc(C(C)(C)C)cc2)cc1 , please.
[A] -21.6

----------
tested on: NCI-H23 lung; assay: NCI-60 one-dose screen, 48 h (100 = growth as untreated, 0 = no growth, -100 = all killed); conditions: 10 µM unless noted
The panel holds about 83,000 compounds, 20% with a hit somewhere; the sample as a whole holds those more often. Activity calls are given as the source filed them. How the source made its calls: active means growth percent below 10; inactive means the rest.
Would you kindly list growth for each of these compounds?

Worked examples, 6 compounds total:
[
  {
    "compound": "CCN(CC)CCCN1C(=O)c2c(c(C)c3c(oc4cc(OC)ccc43)c2C)C1=O",
    "value-type": "growth",
    "experimental-result": "105% (inactive)"
  },
  {
    "compound": "O=C(CC1(O)C(=O)Nc2ccc(Br)cc21)c1ccc(Cl)cc1 (centres undefined)",
    "value-type": "growth",
    "experimental-result": "96.8% (inactive)"
  },
  {
    "compound": "COC1=CC(=O)C(OC)=C(O)C1=O",
    "value-type": "growth",
    "experimental-result": "99.1% (inactive)"
  },
  {
    "compound": "N#CC(Cc1cccc2ccccc12)c1cc2ccccc2[nH]1 (centres undefined)",
    "value-type": "growth",
    "experimental-result": "85% (inactive)"
  },
  {
    "compound": "Brc1ccc(/C=C(/C2=NCCN2)n2ccc3ccccc32)cc1",
    "value-type": "growth",
    "experimental-result": "87% (inactive)"
  },
  {
    "compound": "CCCCCCCCCCCCCCCCCCOc1cccc(CC(=O)OCC[N+](CC)(CC)CC)c1",
    "value-type": "growth",
    "experimental-result": "35.7% (inactive)"
  }
]

Please supply growth for each of the following items, keeping them in order.
1. COC(=O)c1c2c(c(C)[n+]([O-])c1C)C(=O)C(NCCN1CCOCC1)=CC2=O
2. Cc1ccc(NC(=O)c2sc3nc(C)c(C(=O)c4ccccc4)cc3c2N)cc1

[A]
["59.7% (inactive)", "96.2% (inactive)"]

Please supply growth for each of the following items, keeping them in order.
1. CC[C@]1(O)CC2CN(CCc3c([nH]c4ccccc34)C(C(=O)OC)(c3cc4c(cc3OC)N(C=O)[C@H]3[C@@](O)(C(=O)OC)[C@H](OC(C)=O)[C@]5(CC)[C@@H]6C[C@@H]6CN6CC[C@]43[C@@H]65)C2)C1 (some centres undefined)
2. COC(=O)c1nc(-c2ccccc2)oc1S(=O)(=O)N(C)CCO
3. C#CCOCC1CN(C)C(=O)O1 (centres undefined)
4. Cc1ccc(C(=O)Nc2ccc(CN3CCN(C)CC3)c(C(F)(F)F)c2)cc1C#Cc1cnc(N)cc1C#N
5. Cc1ccc(-c2nc3nc(-c4ccc(Cl)cc4)nc(N4CCCNCC4)c3o2)cc1

[A]
1. 6.32% (active)
2. 90.9% (inactive)
3. 111% (inactive)
4. -40.7% (active)
5. 96.4% (inactive)

Please supply growth for each of the following items, keeping them in order.
1. Cc1ccc2nc3ccccc3c(NCc3ccc(Cl)cc3)c2c1
2. C=C(CNCCc1ccc(O)cc1)[C@@H]1CC[C@]2(CO)CC[C@]3(C)[C@H](CC[C@@H]4[C@@]5(C)CCC(NCCc6ccc(O)cc6)C(C)(C)[C@@H]5CC[C@]43C)[C@@H]12 (some centres undefined)
3. CCOc1nc(-c2ccccc2)cc2c(O)c(C(=O)N/N=C/c3ccc(N(C)C)cc3)[nH]c(=O)c12
4. C[C@@H]1O[C@@H](O[C@H]2[C@@H](OC(=O)[C@]34CCC(C)(C)C[C@H]3C3=CC[C@@H]5[C@@]6(C)C[C@H](O)[C@H](O[C@@H]7O[C@H](CO)[C@@H](O)[C@H](O)[C@H]7O)[C@@](C)(CO)[C@@H]6CC[C@@]5(C)[C@]3(C)C[C@H]4O)OC[C@@H](O)[C@@H]2O)[C@H](O)[C@H](O[C@@H]2OC[C@@H](O)[C@H](O[C@@H]3OC[C@](O)(CO)[C@H]3O[C@@H]3OC[C@@H](O)[C@H](O)[C@H]3O)[C@H]2O)[C@H]1O[C@@H]1OC[C@](O)(CO)[C@H]1O
5. N#C/C(=N\Nc1ccc(Cl)cc1)C(=O)Nc1cc(-c2ccccc2)nn1-c1ccccc1
6. CCN1C(=S)N(CC)C2C1NC(=S)N2/N=C/C=C/c1ccccc1 (centres undefined)
7. C/C=C(\C)C(=O)N[C@H]1CC[C@]2(C)C3CC[C@@]4(C)C(CC[C@@H]4C(C)N(C)C)C3CCC2[C@H]1OC(C)=O (some centres undefined)
8. COc1ccc(-c2cc(-c3cccnc3)nc3sc4c(Cl)nnnc4c23)cc1OC

[A]
["46% (inactive)", "-78.2% (active)", "107% (inactive)", "48.7% (inactive)", "1.09% (active)", "58.5% (inactive)", "-8.02% (active)", "91.3% (inactive)"]

Please supply growth for each of the following items, keeping them in order.
1. C=CCNC(=O)Cc1c(-c2ccc(OC)cc2)oc2c(OC)c3c(c(OC)c12)OCO3
2. CCCCC#Cc1c(/C=C(\CCCC)SCC)n(C)c(=O)[nH]c1=O
3. Cc1ccc(Cl)cc1N1CCN(C(=O)[C@@H]2C[C@@H]2c2ccc(F)cc2)CC1
4. C#Cc1cc(C(=O)Nc2ccc(CN3CCN(C)CC3)c(C(F)(F)F)c2)ccc1C
5. CCOC(=O)C(=CCC(C)C)C(=O)OCC

[A]
1: 96.2% (inactive); 2: 94.1% (inactive); 3: 84.2% (inactive); 4: 88.2% (inactive); 5: 93.1% (inactive)
